- TEST_TARGET: UniProt P38433
- Sequence (P38433 whole entry): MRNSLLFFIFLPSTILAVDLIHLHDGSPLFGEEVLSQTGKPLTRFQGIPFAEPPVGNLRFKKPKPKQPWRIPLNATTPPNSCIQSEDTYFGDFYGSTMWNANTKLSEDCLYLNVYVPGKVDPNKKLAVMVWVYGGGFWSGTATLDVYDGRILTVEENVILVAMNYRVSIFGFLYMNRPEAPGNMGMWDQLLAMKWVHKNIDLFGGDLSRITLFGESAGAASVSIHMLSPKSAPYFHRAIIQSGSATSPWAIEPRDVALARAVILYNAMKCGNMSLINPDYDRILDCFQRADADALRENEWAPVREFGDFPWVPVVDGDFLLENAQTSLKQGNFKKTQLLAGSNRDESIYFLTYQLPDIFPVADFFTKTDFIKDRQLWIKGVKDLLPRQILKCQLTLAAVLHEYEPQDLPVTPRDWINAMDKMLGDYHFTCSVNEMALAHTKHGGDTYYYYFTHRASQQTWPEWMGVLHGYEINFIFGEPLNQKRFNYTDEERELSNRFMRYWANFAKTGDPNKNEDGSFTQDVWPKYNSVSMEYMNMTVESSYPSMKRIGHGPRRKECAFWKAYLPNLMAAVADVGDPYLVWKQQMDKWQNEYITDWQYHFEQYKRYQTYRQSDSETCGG
- ASSAY_PROCEDURE: Inhibition of AChE in Caenorhabditis elegans assessed as increase in acetylcholine after 48 hrs by Amplex red assay
// reported fold change (FC) for each item listed

{"columns": ["COMPOUND", "TEST_TARGET", "fold change (FC)"],
 "data": [
  ["CCC(C)c1cc(C2C3=C(CC(C)(C)CC3=O)Oc3nc4c(c(N)c32)CCCC4)cc2cc(-c3ccc(OC)cc3)c(=O)oc12 (racemic)", "UniProt P38433", 1.51],
  ["COc1cc(-c2cc3cc(C4C5=C(CCCC5=O)Oc5nc6c(c(N)c54)CCCC6)cc(C(C)C)c3oc2=O)cc(OC)c1OC (racemic)", "UniProt P38433", 1.2],
  ["CCC(C)c1cc(C2C3=C(CCCC3=O)Oc3nc4c(c(N)c32)CCCC4)cc2cc(-c3cc(OC)c(OC)c(OC)c3)c(=O)oc12 (racemic)", "UniProt P38433", 1.15],
  ["COc1ccc(-c2cc3cc(C4C5=C(CC(C)(C)CC5=O)Oc5nc6c(c(N)c54)CCC6)cc(C(C)C)c3oc2=O)cc1OC (racemic)", "UniProt P38433", 1.19],
  ["COc1ccc(-c2cc3cc(C4C5=C(CC(C)(C)CC5=O)Oc5nc6c(c(N)c54)CCC6)cc(C(C)C)c3oc2=O)cc1 (racemic)", "UniProt P38433", 1.5],
  ["COc1ccc(-c2cc3cc(C4C5=C(CC(C)(C)CC5=O)Oc5nc6c(c(N)c54)CCCC6)cc(C(C)C)c3oc2=O)cc1 (racemic)", "UniProt P38433", 1.88],
  ["COc1ccc(-c2cc3cc(C4C5=C(CC(C)(C)CC5=O)Oc5nc6c(c(N)c54)CCCC6)cc(C(C)C)c3oc2=O)cc1OC (racemic)", "UniProt P38433", 1.16],
  ["CCC(C)c1cc(C2C3=C(CCCC3=O)Oc3nc4c(c(N)c32)CCC4)cc2cc(-c3cc(OC)c(OC)c(OC)c3)c(=O)oc12 (racemic)", "UniProt P38433", 1.14]
]}
